# TARGET_OR_SYSTEM: Human Kv1.5 channels (Homo sapiens, UniProt P22460)
# Sequence (P22460 whole entry): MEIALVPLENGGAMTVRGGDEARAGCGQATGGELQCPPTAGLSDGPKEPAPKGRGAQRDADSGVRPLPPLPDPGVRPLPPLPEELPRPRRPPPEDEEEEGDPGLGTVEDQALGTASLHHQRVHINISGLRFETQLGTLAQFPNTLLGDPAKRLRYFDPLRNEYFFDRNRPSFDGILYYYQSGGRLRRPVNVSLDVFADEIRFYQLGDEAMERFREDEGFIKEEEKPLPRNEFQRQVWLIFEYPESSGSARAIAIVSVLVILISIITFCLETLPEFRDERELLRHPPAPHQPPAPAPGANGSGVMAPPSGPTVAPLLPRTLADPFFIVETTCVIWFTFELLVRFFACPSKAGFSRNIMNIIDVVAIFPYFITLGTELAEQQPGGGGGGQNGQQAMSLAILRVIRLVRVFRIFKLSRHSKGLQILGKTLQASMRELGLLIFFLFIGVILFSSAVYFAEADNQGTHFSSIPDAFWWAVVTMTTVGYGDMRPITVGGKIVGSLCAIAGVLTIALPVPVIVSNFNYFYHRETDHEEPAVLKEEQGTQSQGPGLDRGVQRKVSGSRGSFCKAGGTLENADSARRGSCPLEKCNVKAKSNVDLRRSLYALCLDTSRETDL
# PROTOCOL_SUMMARY: Kv1.5 currents in Xenopus oocytes, two-microelectrode voltage clamp
# CONDITION_SET: human Kv1.5 expressed in Xenopus laevis oocytes; 500 ms voltage jumps to 0 mV and 40 mV; room temperature; percentage inhibition of control current fitted with Hill equation
Binary label based on IC50 with cut-off 4 µM: below gives TRUE, not below gives FALSE.

Please review the following examples before continuing.
> print(dat)
                                   compound  class.assignment
1  CCN(C(=O)c1ccccc1NS(=O)(=O)c1cccc2cccnc12)c1ccccc1 [Example 28]              TRUE
2  COc1ccc(CNC(=O)c2cc(OC)ccc2NS(=O)(=O)c2ccc(Cl)cc2)cc1 [Example 16]              TRUE
3  Cc1ccc(S(=O)(=O)Nc2ccccc2C(=O)N(C)CCc2ccccc2)cc1 [Example 8]             FALSE

Request: Please determine if O=C(NCCc1ccccc1)c1ccccc1NS(=O)(=O)c1ccccc1 [Example 10] is below 4 µM in terms of IC50.
Response: TRUE

----------
# TARGET_OR_SYSTEM: Human Kv1.5 channels (Homo sapiens, UniProt P22460)
# PROTOCOL_SUMMARY: Kv1.5 currents in Xenopus oocytes, two-microelectrode voltage clamp
# CONDITION_SET: human Kv1.5 expressed in Xenopus laevis oocytes; 500 ms voltage jumps to 0 mV and 40 mV; room temperature; percentage inhibition of control current fitted with Hill equation
Give pIC50 for every item shown.
One number for each entry, as −log10 of the molar value.

Solved cases (4 shown):
> print(dat)
                              record.smiles                          target.or.system  reported.value
1  CCN(C(=O)c1ccccc1NS(=O)(=O)c1ccc2ccccc2c1)c1ccccc1  Human Kv1.5 channels (Homo sapiens, UniProt P22460)            5.25
2  CCN(Cc1ccccc1)C(=O)c1ccccc1NS(=O)(=O)c1ccc(Cl)cc1  Human Kv1.5 channels (Homo sapiens, UniProt P22460)            5.49
3  CCN(Cc1ccccc1)C(=O)c1ccccc1NS(=O)(=O)c1ccccc1  Human Kv1.5 channels (Homo sapiens, UniProt P22460)            5.33
4  CCN(C(=O)c1ccccc1NS(=O)(=O)c1ccc(C)cc1OC)c1ccccc1  Human Kv1.5 channels (Homo sapiens, UniProt P22460)            5.52

// for each compound in input: emit pIC50
1. COc1ccc(NS(=O)(=O)c2cccc3cccnc23)c(C(=O)NCCc2ccc(OC)c(OC)c2)c1
2. CN(CCc1ccccc1)C(=O)c1ccccc1NS(=O)(=O)c1ccccc1

Response:
1. 5.16
2. 5.43

----------
# TARGET_OR_SYSTEM: UniProtKB P22460
# PROTOCOL_SUMMARY: Kv1.5 currents in Xenopus oocytes, two-microelectrode voltage clamp
# CONDITION_SET: human Kv1.5 expressed in Xenopus laevis oocytes; 500 ms voltage jumps to 0 mV and 40 mV; room temperature; percentage inhibition of control current fitted with Hill equation
Give IC50 for every item shown.
Answers are plain numbers, in µM.

Solved cases (3 shown):
> print(dat)
                                   compound  reported.value
1  CCN(C(=O)c1cc(C)ccc1NS(=O)(=O)c1ccc(C)cc1)c1ccccc1 [Example 17]             1.6
2  CCc1ccc(S(=O)(=O)Nc2ccccc2C(=O)N(CC)c2ccccc2)cc1 [Example 25]             4.2
3  Cc1ccc(S(=O)(=O)Nc2ccccc2C(=O)NCc2ccccc2)cc1 [Example 6]             4.1

// for each compound in input: emit IC50
1. COc1ccc(NS(=O)(=O)c2ccc(C)cc2)c(C(=O)NCc2ccc(C)o2)c1 [Example 3]
2. Cc1ccc(S(=O)(=O)Nc2ccccc2C(=O)NCc2cccc(C)c2)cc1 [Example 18]

Response:
1. 2.1
2. 3.5

// for each compound in input: emit IC50
1. Cc1ccc(CNC(=O)c2c(C)cccc2NS(=O)(=O)c2ccc(C)c(Cl)c2)o1 [Example 20]
2. CCN(Cc1ccccc1)C(=O)c1cc(F)ccc1NS(=O)(=O)c1ccc(C)cc1 [Example 13]

Response:
3.8
3.7
